Test system: RPMI-8226 leukemia
Assay: NCI tumour cell line growth inhibition, 48 h; in the data active means GI50 below about 0.43 µM; inactive means the rest
Output constraint: value belongs to True (active), False (inactive)

The examples below pair each entry with its known result.
O=S(=O)(NC1=NCCN1C(=S)SN1CCn2c1nsc2=S)c1ccccc1Cl    False
NCCCN1CCN(CCCNc2nc3ccccc3c3[nH]c4ccccc4c23)CC1    True
CC(C)C[C@H](NC(=O)CCn1ccc2ncccc2c1=O)B(O)O    False
Cc1ccc2nc(-c3ccc(N)c4ccccc34)[nH]c2c1    True

Write down the call the test reported for this compound. Item: COc1cccc(C2SC(C)C(=O)N2CCc2cccs2)c1 (configuration not stated)
False

Write down the call the test reported for this compound. Item: Cc1ccc(Nc2cc(C)nc(NCCCNc3ccnc4cc(Cl)ccc34)n2)cc1
False

Write down the call the test reported for this compound. Item: N#C/C(=C\c1c(-c2ccccc2)[nH]c2ccccc12)C(=O)c1ccccc1
False

Write down the call the test reported for this compound. Item: CNC1=C(C(=O)OC)SC(c2ccccc2)(c2ccccc2)SC1
False

Write down the call the test reported for this compound. Item: COc1cc(C2CC(=O)Nc3c2ccc2ccccc32)cc(Br)c1OC (configuration not stated)
False

Write down the call the test reported for this compound. Item: NS(=O)(=O)c1ccc(-n2ncc3c(Nc4ccccc4)ncnc32)cc1
False

Write down the call the test reported for this compound. Item: Clc1ccc(CNc2nccc(-c3cnn4ncccc34)n2)cc1
False

Write down the call the test reported for this compound. Item: COc1ccc2c(c1)c(-c1ccc(-c3cn(C)c4ccc(OC)cc34)[nH]1)cn2C
False

----------
System: SF-539 CNS
Test: NCI tumour cell line growth inhibition, 48 h; in the data active means GI50 below about 0.43 µM; inactive means the rest
Output constraint: value belongs to active, inactive

The examples below pair each entry with its known result.
Cc1ncc(C(=O)Nc2ccc(CN3CCN(C)CC3)c(C(F)(F)F)c2)cc1C#Cc1c(N)ncc2ccccc12    inactive
FC(F)(F)c1cccc2c(SCCc3n[nH]c(=S)o3)ccnc12    inactive
N#Cc1nc2c(S(=O)(=O)c3ccccc3)c(N)n(Cc3ccc(Cl)cc3)c2nc1C#N    inactive
Nc1c(C(=O)N/N=C/c2ccc(-c3cc(Cl)c(Cl)cc3Cl)o2)cnn1-c1ccnc2c(C(F)(F)F)cccc12    inactive
CCN(CC)CCn1c2ccc(OC)cc2c2sc3cc(OC)ccc3c(=O)c21    inactive
Nc1ccc(C(OC(=O)c2cc3ccccc3c(Cc3c(O)c(C(=O)OC(c4ccc(N)cc4)(c4ccc(N)cc4)c4ccc(N)cc4)cc4ccccc34)c2O)(c2ccc(N)cc2)c2ccc(N)cc2)cc1    active
O=c1cccccc1[O-].O=c1cccccc1[O-].O=c1cccccc1[O-].[Ce+3]    inactive
Cc1ccc(Nc2cc(C)nc(NCCCNc3ccnc4cc(Cl)ccc34)n2)cc1    inactive

Write down the call the test reported for this molecule. Item: O=C(CCSc1ccnc2c(C(F)(F)F)cccc12)N/N=C/c1cc(Cl)c(Cl)cc1Cl
inactive

Write down the call the test reported for this molecule. Item: COc1ccc2c(c1)c(-c1ccc(-c3cn(C)c4ccc(OC)cc34)[nH]1)cn2C
inactive

Write down the call the test reported for this molecule. Item: CCOc1nccc2c1nc(-c1nonc1N)n2CC
inactive

Write down the call the test reported for this molecule. Item: C=C1C(OC/C=C/COC2O[C@@H]3O[C@@]4(C)CC[C@H]5[C@H](C)CC[C@@H](C2=C)[C@@]35OO4)O[C@@H]2O[C@@]3(C)CC[C@H]4[C@H](C)CC[C@@H]1[C@@]24OO3 (stereo not given in full)
inactive

----------
Tested on: HL-60(TB) leukemia
Experiment: NCI tumour cell line growth inhibition, 48 h; in the data active means GI50 below about 0.43 µM; inactive means the rest
Output constraint: value belongs to active, inactive

CCN(CC)CCn1c2ccc(OC)cc2c2sc3cc(OC)ccc3c(=O)c21    inactive
COc1ccc(-c2cc(-c3cccc(NS(C)(=O)=O)c3)nc(N)c2C#N)cc1    active
CCOc1nccc2c1nc(-c1nonc1N)n2CC    inactive
O=S(=O)(NC1=NCCN1C(=S)SN1CCn2c1nsc2=S)c1ccccc1Cl    active
COc1cccc(C2SC(C)C(=O)N2CCc2cccs2)c1 (stereo not given)    inactive
Cc1ccc(Nc2cc(C)nc(NCCCNc3ccnc4cc(Cl)ccc34)n2)cc1    inactive
C[C@@H](COCCC(=O)N1CCN(c2ncc(C(F)(F)F)cn2)CC1)Nc1cn[nH]c(=O)c1C(F)(F)F    inactive
CC(C)C[C@H](NC(=O)CCn1ccc2ncccc2c1=O)B(O)O    inactive
COc1ccc(-c2ccc(-c3ccc(C(=N)N)cn3)o2)cc1Cl    inactive

Could you now consider this next compound?
Write down the call the test reported for this compound. Item: CC(=O)OC(C)c1cc2c(s1)C(=O)c1c(C(C)OC(C)=O)csc1C2=O (stereo not given)
active

----------
System: EKVX NSCLC
Assay: NCI tumour cell line growth inhibition, 48 h; in the data active = GI50 below about 0.43 µM; inactive = the rest
Output constraint: value belongs to true (1) for active, false (0) for inactive

The examples below pair each entry with its known result.
Clc1ccc(C2CC(c3cccc(Nc4ccncc4)c3)=NN2c2cc(Cl)cc(Cl)c2)cc1 (stereo not given)    false (0)
N#Cc1nc2c(S(=O)(=O)c3ccccc3)c(N)n(Cc3ccc(Cl)cc3)c2nc1C#N    false (0)

Write down the call the test reported for this compound. Item: CCN(CC)CCOC(=O)Cc1cccc2c(=O)cc(-c3ccccc3)oc12
false (0)

Write down the call the test reported for this compound. Item: Clc1ccc(CNc2nccc(-c3cnn4ncccc34)n2)cc1
false (0)

Write down the call the test reported for this compound. Item: CC(=O)[O-].[Zn].c1ccc(/C(=N\Nc2ccccn2)c2ccccn2)cc1
true (1)

----------
Tested on: MDA-MB-231 breast
Assay: NCI tumour cell line growth inhibition, 48 h
Metric Name: GI50

Some compounds with recorded GI50:
CCOc1nccc2c1nc(-c1nonc1N)n2CC    > 25 µM
NS(=O)(=O)c1ccc(-n2ncc3c(Nc4ccccc4)ncnc32)cc1    15 µM

// next item, GI50 requested
Query N#Cc1nc2c(S(=O)(=O)c3ccccc3)c(N)n(Cc3ccc(Cl)cc3)c2nc1C#N on MDA-MB-231 breast; GI50 returned: 5.08 µM

----------
Form field: TGI (one value per entry).
System: OVCAR-3 ovarian
Test: NCI tumour cell line growth inhibition, 48 h

Query O=[N+]([O-])c1ccc([N+]2=NC(c3ccccc3)=NN(c3ccccc3)C2)cc1 on OVCAR-3 ovarian; TGI returned: > 100 µM

----------
System: SNB-19 CNS
Test: NCI tumour cell line growth inhibition, 48 h; in the data active = GI50 below about 0.43 µM; inactive = the rest
Output constraint: value belongs to active, inactive

The examples below pair each entry with its known result.
Cn1cnc2c(F)c(Nc3ccc(Br)cc3F)c(C(=O)NOCCO)cc21    inactive
NCCCN1CCN(CCCNc2nc3ccccc3c3[nH]c4ccccc4c23)CC1    active
COc1cc2c3c(n(CCCBr)c(=O)c2cc1OC)-c1ccc(F)cc1C3=O    inactive
COc1cc(F)c(/C=C/c2cc(/C=C/c3cc(OC)c(OC)cc3F)n(-c3cc(F)cc(F)c3)n2)cc1OC    inactive

Write down the call the test reported for this compound. Item: FC(F)(F)c1cccc2c(SCCc3n[nH]c(=S)o3)ccnc12
inactive

Write down the call the test reported for this compound. Item: Cc1cc(C)c(S(=O)(=O)N(CCc2cccc(Br)c2)Cc2ccc(-c3cccc(S(C)(=O)=O)c3)cc2)c(C)c1
inactive

----------
Tested on: HT29 colon
Experiment: NCI tumour cell line growth inhibition, 48 h; in the data active = GI50 below about 0.43 µM; inactive = the rest
Output constraint: value belongs to active, inactive

CC(C)C[C@H](NC(=O)CCn1ccc2ncccc2c1=O)B(O)O    inactive

Write down the call the test reported for this compound. Item: CC(=O)[O-].[Zn].c1ccc(/C(=N\Nc2ccccn2)c2ccccn2)cc1
inactive

Write down the call the test reported for this compound. Item: CCOc1nccc2c1nc(-c1nonc1N)n2CC
inactive

Write down the call the test reported for this compound. Item: NC(=O)c1ccccc1NC(=O)c1ccccc1Cl
inactive

----------
Form field: TGI (one value per entry).
System: RPMI-8226 leukemia
Experiment: NCI tumour cell line growth inhibition, 48 h

Some molecules with recorded TGI:
O=C(N/N=C(/COc1ccccc1Cl)N=Cc1ccncc1)c1ccncc1    > 100 µM
CSc1ccc(SC2c3ccc(C)cc3Oc3nc(N)c(C#N)c(N)c32)cc1 (configuration not stated)    6.96 µM
CS/C(c1ccccc1)=[N+](\[O-])Cc1ccccc1    55.3 µM
CCNNC(=O)[C@@H]1[C@H](c2cc(OC)c(OC)c(OC)c2)c2cc3c(cc2[C@H](O)[C@H]1CO)OCO3    > 100 µM
CC(C)(C)OC(=O)N1[C@@H]2Cc3ccc(N)cc3[C@@]1(C)c1ccccc12    48.6 µM
Cn1cnc2c(F)c(Nc3ccc(Br)cc3F)c(C(=O)NOCCO)cc21    > 100 µM

Record CC(=O)NC1(C(=O)N[C@@H](Cc2ccccc2)C(=O)NC2CCCCC2)Cc2ccc3ccccc3c2-c2c(ccc3ccccc23)C1 . Reported TGI: > 100 µM

Record NCc1c(C(N)=O)ncn1Cc1ccccc1 . Reported TGI: > 100 µM

Record O=c1oc2c3ccc4cnccc4c3[nH]c2c2ccccc12 . Reported TGI: 33.4 µM

Record Nc1ccc2ccc(-c3ccc[nH]3)nc2n1 . Reported TGI: > 100 µM

Record O=C1C2=C(SCCS2)C(=O)c2c(Sc3ccc(Cl)cc3)c(Sc3ccc(Cl)cc3)c(Sc3ccc(Cl)cc3)c(Sc3ccc(Cl)cc3)c21 . Reported TGI: > 100 µM

Record S=c1sc2cscc2s1 . Reported TGI: > 100 µM

Record O=C(C(Cl)=C(N1CCCCC1)N1CCCCC1)C(Cl)Cl . Reported TGI: > 100 µM

Record NC(=O)c1ccccc1NC(=O)c1ccccc1Cl . Reported TGI: > 100 µM

Record O=[N+]([O-])c1cccc(Cl)c1Oc1ccc(S(=O)(=O)/N=C(\NO)Nc2ccc(Cl)cc2)cc1 . Reported TGI: 27.8 µM

Record CC(=O)OC(C)c1cc2c(s1)C(=O)c1c(C(C)OC(C)=O)csc1C2=O (configuration not stated) . Reported TGI: 4.98 µM

Record CCOc1nccc2c1nc(-c1nonc1N)n2CC . Reported TGI: > 25 µM

Record CNC1=C(C(=O)OC)SC(c2ccccc2)(c2ccccc2)SC1 . Reported TGI: 39.7 µM

Record COc1ccc(-c2cc(-c3cccc(NS(C)(=O)=O)c3)nc(N)c2C#N)cc1 . Reported TGI: 8.23 µM

Record COC(=O)C1=CON2C3CC4CC(C3)CC(C4)C12C (configuration not stated) . Reported TGI: > 100 µM

Record Cc1ncc(CCl)c(CCl)c1O . Reported TGI: > 100 µM

Record CCC1(NC(=O)c2cc(F)c(F)c(F)c2F)C(=O)NC(=O)N(C(C)C)C1=O (configuration not stated) . Reported TGI: > 100 µM
